Reference source: patent US9801880B2

System: Ret (V804L) (Homo sapiens, UniProt P07949, V804L)
Sequence (P07949 29-1114 V804L): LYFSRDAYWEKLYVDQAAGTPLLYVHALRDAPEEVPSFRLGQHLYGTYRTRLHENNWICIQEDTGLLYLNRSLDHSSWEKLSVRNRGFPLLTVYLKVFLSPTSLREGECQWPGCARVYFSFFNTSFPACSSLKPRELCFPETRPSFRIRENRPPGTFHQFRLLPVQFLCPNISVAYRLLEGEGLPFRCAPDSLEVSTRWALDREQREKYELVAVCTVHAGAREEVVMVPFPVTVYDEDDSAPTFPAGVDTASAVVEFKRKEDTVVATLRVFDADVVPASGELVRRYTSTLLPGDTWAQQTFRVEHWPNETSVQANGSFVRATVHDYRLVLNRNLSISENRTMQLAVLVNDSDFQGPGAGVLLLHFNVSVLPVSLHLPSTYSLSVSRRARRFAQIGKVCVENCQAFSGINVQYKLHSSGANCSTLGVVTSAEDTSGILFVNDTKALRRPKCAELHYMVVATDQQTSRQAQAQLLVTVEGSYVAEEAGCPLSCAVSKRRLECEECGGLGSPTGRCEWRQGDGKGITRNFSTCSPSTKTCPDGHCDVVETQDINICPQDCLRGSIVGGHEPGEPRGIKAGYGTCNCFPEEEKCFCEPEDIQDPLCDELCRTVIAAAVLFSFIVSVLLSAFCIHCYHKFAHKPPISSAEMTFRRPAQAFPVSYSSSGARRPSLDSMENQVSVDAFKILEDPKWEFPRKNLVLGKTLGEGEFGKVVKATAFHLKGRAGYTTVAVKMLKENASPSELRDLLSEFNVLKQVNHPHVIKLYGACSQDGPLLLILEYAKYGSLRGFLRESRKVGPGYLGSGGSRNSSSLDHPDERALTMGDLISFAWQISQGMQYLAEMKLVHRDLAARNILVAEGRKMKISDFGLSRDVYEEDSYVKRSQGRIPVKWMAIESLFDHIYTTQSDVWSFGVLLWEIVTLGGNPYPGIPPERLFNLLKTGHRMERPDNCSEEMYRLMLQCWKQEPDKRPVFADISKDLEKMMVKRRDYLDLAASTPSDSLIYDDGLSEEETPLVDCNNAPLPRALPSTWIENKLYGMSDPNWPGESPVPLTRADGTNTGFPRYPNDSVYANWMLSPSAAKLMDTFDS
Protocol text: KinomeScan competition binding assay
Design: purchased DiscoveRx Corporation (KinomeScan service)
Metric: Kd (nM)
Give the quantity in nM, number only.

What reported Kd corresponds to Nc1nc(Nc2ccc3c(c2)CC[C@@H](N2CCCC2)CC3)nn1-c1cc2c(nn1)-c1ccccc1CCC2 on Ret (V804L) (Homo sapiens, UniProt P07949, V804L)? 90

* * *

System: TEK(R849W) (Homo sapiens, UniProt Q02763, R849W)
Construct: purchased EMD Millipore Corp. (KinaseProfiler service)
Protocol text: KinaseProfiler kinase activity assay
Type: biochemical
Measurement context: ATP at Km
Metric: IC50 (nM)
Only the number, expressed in nM, is required.

Given the entry Nc1nc(Nc2ccc3c(c2)CC[C@@H](N2CCCC2)CC3)nn1-c1cc2c(nn1)-c1ccccc1CCC2 [Compound A] , what IC50 was observed with TEK(R849W) (Homo sapiens, UniProt Q02763, R849W)? 22

* * *

System: c-Kit (D816V) (Homo sapiens, UniProt P10721, D816V)
Sequence (P10721 26-976 D816V): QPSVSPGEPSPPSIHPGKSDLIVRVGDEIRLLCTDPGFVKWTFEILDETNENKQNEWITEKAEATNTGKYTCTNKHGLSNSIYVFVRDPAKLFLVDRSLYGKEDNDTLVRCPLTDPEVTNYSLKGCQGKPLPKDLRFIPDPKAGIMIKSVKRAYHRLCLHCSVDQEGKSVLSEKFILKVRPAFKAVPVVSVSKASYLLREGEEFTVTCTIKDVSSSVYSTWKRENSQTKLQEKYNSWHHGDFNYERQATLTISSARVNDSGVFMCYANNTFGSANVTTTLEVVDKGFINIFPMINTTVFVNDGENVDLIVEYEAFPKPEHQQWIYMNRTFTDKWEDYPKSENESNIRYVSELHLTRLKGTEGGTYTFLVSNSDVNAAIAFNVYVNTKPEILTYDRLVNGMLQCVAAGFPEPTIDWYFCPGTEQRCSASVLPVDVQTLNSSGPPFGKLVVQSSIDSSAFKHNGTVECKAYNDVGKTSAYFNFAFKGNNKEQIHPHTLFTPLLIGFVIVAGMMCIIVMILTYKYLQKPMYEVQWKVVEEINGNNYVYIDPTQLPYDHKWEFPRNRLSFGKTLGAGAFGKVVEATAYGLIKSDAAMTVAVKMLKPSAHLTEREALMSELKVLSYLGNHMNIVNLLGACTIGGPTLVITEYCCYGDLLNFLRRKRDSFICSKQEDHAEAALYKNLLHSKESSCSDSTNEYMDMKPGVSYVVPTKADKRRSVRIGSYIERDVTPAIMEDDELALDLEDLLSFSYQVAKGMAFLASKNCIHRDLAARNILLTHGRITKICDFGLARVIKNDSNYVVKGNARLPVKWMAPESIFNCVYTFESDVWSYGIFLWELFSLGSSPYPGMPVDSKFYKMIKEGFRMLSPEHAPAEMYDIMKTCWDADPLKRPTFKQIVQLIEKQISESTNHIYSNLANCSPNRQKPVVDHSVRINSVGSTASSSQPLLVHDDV
Protocol text: KinaseProfiler kinase activity assay
Metric: IC50 (nM)
Note: unit nM is implicit; provide only the numeric part.

Please give the measured IC50 for this compound: Nc1nc(Nc2ccc3c(c2)CC[C@@H](N2CCCC2)CC3)nn1-c1cc2c(nn1)-c1ccccc1CCC2 [Compound A] 177

* * *

System: Yes (Homo sapiens)
Protocol text: KinomeScan competition binding assay
Parameters: purchased DiscoveRx Corporation (KinomeScan service)
Metric: Kd (nM)
Your answer is read as nM, so omit the unit and give the number.

Tell me the measured Kd of Nc1nc(Nc2ccc3c(c2)CC[C@@H](N2CCCC2)CC3)nn1-c1cc2c(nn1)-c1ccccc1CCC2 , please. 810

* * *

System: Abl(Q252H) (Homo sapiens, UniProt P00519, Q252H)
Protocol text: KinomeScan competition binding assay
Set-up: purchased DiscoveRx Corporation (KinomeScan service)
Metric: Kd (nM)
Respond with the bare value in nM.

Missing value: Kd, Abl(Q252H) (Homo sapiens, UniProt P00519, Q252H), entry Nc1nc(Nc2ccc3c(c2)CC[C@@H](N2CCCC2)CC3)nn1-c1cc2c(nn1)-c1ccccc1CCC2 . Fill in? 112

* * *

System: Flt4 (Homo sapiens)
Sequence (P35916 25-1363): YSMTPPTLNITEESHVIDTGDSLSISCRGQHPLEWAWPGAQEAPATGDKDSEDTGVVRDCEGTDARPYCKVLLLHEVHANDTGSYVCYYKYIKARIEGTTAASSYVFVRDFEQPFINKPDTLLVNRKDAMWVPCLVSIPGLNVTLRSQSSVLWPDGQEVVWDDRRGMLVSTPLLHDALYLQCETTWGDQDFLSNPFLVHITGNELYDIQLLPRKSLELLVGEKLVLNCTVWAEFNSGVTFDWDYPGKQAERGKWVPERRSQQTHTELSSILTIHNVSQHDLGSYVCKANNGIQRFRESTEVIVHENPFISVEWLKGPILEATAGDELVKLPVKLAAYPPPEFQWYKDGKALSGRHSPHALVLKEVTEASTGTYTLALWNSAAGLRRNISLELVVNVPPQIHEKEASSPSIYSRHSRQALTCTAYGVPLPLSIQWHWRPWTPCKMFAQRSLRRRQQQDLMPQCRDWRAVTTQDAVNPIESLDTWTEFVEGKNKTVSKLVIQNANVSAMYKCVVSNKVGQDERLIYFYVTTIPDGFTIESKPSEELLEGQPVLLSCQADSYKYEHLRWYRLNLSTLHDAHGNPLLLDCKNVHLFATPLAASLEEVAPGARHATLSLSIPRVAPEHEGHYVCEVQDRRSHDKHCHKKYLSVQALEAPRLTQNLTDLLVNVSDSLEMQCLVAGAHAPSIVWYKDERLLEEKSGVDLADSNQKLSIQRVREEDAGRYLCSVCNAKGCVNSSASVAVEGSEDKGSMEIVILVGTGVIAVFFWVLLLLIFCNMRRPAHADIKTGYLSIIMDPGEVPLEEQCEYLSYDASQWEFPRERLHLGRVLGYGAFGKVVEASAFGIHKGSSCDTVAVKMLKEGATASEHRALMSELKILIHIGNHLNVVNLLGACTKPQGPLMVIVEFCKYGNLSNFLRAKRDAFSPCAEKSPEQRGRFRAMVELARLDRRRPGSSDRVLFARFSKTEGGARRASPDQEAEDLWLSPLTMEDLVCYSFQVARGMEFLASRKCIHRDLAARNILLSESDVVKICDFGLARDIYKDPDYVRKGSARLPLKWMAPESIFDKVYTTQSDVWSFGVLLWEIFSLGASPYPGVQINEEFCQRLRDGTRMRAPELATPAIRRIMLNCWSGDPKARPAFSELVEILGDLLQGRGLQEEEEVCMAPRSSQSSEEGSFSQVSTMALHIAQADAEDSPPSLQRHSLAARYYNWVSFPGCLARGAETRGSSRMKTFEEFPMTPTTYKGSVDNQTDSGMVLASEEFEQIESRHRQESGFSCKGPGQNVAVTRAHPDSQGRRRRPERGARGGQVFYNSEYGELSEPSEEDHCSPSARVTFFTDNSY
Protocol text: KinaseProfiler kinase activity assay
Type: biochemical
Set-up: purchased EMD Millipore Corp. (KinaseProfiler service)
Measurement context: ATP at Km
Metric: IC50

Any idea what its IC50 is? The compound is Nc1nc(Nc2ccc3c(c2)CC[C@@H](N2CCCC2)CC3)nn1-c1cc2c(nn1)-c1ccccc1CCC2 41 nM

* * *

System: Flt1 (Homo sapiens)
Sequence (P17948 27-1338): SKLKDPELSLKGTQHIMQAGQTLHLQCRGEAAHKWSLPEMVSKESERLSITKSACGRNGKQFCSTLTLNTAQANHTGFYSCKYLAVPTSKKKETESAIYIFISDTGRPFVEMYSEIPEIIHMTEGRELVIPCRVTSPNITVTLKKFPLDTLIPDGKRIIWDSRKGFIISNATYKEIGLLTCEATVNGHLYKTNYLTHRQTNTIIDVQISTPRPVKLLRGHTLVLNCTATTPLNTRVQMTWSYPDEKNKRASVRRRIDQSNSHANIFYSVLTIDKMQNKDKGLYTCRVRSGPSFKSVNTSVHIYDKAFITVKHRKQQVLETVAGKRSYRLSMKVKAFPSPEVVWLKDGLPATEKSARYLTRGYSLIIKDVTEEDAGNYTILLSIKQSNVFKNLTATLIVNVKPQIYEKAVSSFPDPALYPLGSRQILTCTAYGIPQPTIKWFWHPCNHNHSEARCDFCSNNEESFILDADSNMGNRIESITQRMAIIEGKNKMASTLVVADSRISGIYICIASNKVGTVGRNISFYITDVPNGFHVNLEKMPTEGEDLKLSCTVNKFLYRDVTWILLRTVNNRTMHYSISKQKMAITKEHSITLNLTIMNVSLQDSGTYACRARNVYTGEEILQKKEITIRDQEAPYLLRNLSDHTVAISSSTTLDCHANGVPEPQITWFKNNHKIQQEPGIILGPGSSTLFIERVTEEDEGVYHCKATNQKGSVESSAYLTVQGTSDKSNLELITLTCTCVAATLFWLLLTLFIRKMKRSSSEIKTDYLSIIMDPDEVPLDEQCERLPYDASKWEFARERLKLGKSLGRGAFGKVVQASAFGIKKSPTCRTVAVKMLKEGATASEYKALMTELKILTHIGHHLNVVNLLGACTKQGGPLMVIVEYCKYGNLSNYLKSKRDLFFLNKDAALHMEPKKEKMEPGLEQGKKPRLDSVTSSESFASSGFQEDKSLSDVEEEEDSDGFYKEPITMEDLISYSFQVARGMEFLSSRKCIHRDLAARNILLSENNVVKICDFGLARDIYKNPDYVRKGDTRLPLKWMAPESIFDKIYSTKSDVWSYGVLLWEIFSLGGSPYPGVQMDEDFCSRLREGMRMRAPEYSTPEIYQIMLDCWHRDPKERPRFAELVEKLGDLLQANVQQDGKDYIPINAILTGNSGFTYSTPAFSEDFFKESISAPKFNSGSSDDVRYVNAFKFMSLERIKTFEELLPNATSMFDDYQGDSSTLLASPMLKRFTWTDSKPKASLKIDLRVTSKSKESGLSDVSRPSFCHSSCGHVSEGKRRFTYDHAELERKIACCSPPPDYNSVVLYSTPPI
Protocol text: KinaseProfiler kinase activity assay
Assay type: biochemical
Parameters: purchased EMD Millipore Corp. (KinaseProfiler service)
Measurement context: ATP at Km
Metric: IC50 (nM)
Respond with the bare value in nM.

GET /values?readout=IC50&item= Nc1nc(Nc2ccc3c(c2)CC[C@@H](N2CCCC2)CC3)nn1-c1cc2c(nn1)-c1ccccc1CCC2 [Compound A] 40

* * *

System: Ret (M918T) (Homo sapiens, UniProt P07949, M918T)
Construct: purchased DiscoveRx Corporation (KinomeScan service)
Sequence (P07949 29-1114 M918T): as the sequence (P07949 29-1114 V804L) above, with L776V, M890T counted along it
Protocol text: KinomeScan competition binding assay
Metric: Kd (nM)
Kindly answer with a numeric value in nM, unit omitted.

Query: Kd; subject: Nc1nc(Nc2ccc3c(c2)CC[C@@H](N2CCCC2)CC3)nn1-c1cc2c(nn1)-c1ccccc1CCC2 30
